Hey, just so you know, these numbers are from patent US20230414780A1.

As shown below, each of these binders has a reported kon value.
Target: T1, human TfR ectodomain fused to a mouse IgG1 Fc fragment (human, UniProt P02786 89-760)
T1 construct: extracellular domain; ectodomain fused to the N-terminal end of the Fc, made in-house; not shown: mouse IgG1 Fc fragment
T1 sequence (P02786 89-760): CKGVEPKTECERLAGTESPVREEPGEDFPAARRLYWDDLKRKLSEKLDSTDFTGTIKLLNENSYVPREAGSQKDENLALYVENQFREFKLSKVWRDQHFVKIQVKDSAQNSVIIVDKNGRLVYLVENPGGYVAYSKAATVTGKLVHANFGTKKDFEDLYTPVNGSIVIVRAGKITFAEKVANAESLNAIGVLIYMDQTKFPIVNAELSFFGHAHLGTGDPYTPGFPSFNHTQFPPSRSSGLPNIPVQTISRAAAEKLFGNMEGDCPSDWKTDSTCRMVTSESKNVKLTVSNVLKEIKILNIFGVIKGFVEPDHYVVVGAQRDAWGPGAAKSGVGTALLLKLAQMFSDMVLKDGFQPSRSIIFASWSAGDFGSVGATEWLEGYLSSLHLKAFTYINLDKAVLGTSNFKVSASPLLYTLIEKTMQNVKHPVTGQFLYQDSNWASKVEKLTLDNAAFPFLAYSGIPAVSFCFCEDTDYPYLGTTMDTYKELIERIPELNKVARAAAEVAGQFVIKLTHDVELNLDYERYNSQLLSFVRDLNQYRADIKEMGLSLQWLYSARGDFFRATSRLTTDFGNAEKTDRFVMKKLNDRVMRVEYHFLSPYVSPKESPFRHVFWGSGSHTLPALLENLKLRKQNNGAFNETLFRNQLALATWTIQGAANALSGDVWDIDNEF
Assay: SPR, kinetic
outcomeMeasure: kon

* VHH A16 (C5^V16) (VHH) VHH: EVQLVESGGGVVQPGGSLKLSCVASGTDFSINFIRWYRQAPGKQREFVAGFTATGNTNYADSMKGRFTISRDNTKNAVYLQIDSLKPEDTAVYYCYILDKWGQGTQVTVSS | 459000 M⁻¹ s⁻¹
* C5^V31 (VHH) VHH: EVQLVESGGGVVQPGGSLKLSCVASGTDRSINFIRWYRQAPGKQREFVAGFTATGNTNYADSMKGRFTISRDNTKNAVYLQIDSLKPEDTAVYYCYMLDKWGQGTQVTVSS | 383000 M⁻¹ s⁻¹
* VHH A1 (C5^V1) (VHH) VHH: EVQLVESGGGVVQPGGSLKLSCVASGADFSINFIRWYRQAPGKQREFVAGFTATGNTNYADSMKGRFTISRDNTKNAVYLQIDSLKPEDTAVYYCYMLDKWGQGTQVTVSS | 555000 M⁻¹ s⁻¹
* B8^V39 (VHH) VHH: EVQLVESGGGVVQPGGSLRLSCAASGEIFKINFMRWYRQAPGKQREWVAGFTRDGSTNYPDSAKGRFTISRDNAKNTVYLQIDSLKPEDTAVYYCYMLDTWGQGTQVTVSS | 448000 M⁻¹ s⁻¹
